Where do the numbers come from? From patent US20080058213A1.

Test system: wheat
METHOD NOTES: Soil treatment test for upland field (Test Example 2): phytotoxicity to wheat; note: key: 0: normal growth; 1: little damaged; 2: low damaged; 3: medium damaged; 4: serious damaged; 5: complete killed
Type: in vivo
CONDITION SET: dose 5 g ai/a; soil treatment before germination; examined after 3 weeks
Please go through the items and note down their Phytotoxicity wheat.
One number for each entry.

# COMPOUND, Phytotoxicity wheat
measured = [
    ("COCC(=Cc1ccc(F)c(C(F)(F)F)c1)c1nc2cc(F)c(F)cc2o1 [Compound 126]", 0),
    ("FC(F)C(F)(F)COCC(=Cc1cccc(C(F)(F)F)c1)c1nc2cc(C(F)(F)F)ccc2o1 [Compound 87]", 1),
    ("CSCC(=Cc1cccc(C(F)(F)F)c1)c1nc2cc(Cl)ccc2o1 [Compound 30]", 1),
    ("COCC(=Cc1cccc(C(F)(F)F)c1)c1nc2cc(OC(F)(F)F)ccc2o1 [Compound 46]", 0),
    ("CCOC/C(=C\\c1cccc(C(F)(F)F)c1)c1nc2cc(Cl)ccc2o1 [Compound 11]", 0),
]

For the 4 compounds below, give their Phytotoxicity wheat values.
1. COC/C(=C\c1cccc(C(F)(F)F)c1)c1nc2cc(Cl)ccc2o1 [Compound 3]
2. COCC(=Cc1cccc(C(F)(F)F)c1)c1nc2cc(Br)ccc2o1 [Compound 39]
3. CCSCC(=Cc1cccc(C(F)(F)F)c1)c1nc2cc(C(F)(F)F)ccc2o1 [Compound 84]
4. CCOCC(=Cc1cccc(C(F)(F)F)c1)c1nc2cc(C(F)(F)F)ccc2o1 [Compound 54]

**A:**
1. 0
2. 0
3. 0
4. 1

For the 3 compounds below, give their Phytotoxicity wheat values.
1. COCC(=Cc1ccc(Cl)c(C(F)(F)F)c1)c1nc2cc(Cl)ccc2o1 [Compound 9]
2. COCC(=Cc1cccc(C(F)(F)F)c1)c1nc2cc(C(F)(F)F)ccc2o1 [Compound 52]
3. CSCC(=Cc1cccc(C(F)(F)F)c1)c1nc2cc(C(F)(F)F)ccc2o1 [Compound 82]

**A:**
1: 1; 2: 1; 3: 0

For the 3 compounds below, give their Phytotoxicity wheat values.
1. FC(F)(F)COC/C(=C\c1cccc(C(F)(F)F)c1)c1nc2cc(C(F)(F)F)ccc2o1 [Compound 85]
2. CCOCC(=Cc1cccc(C(F)(F)F)c1)c1nc2cc(F)c(C(F)(F)F)cc2o1 [Compound 141]
3. CCOCC(=Cc1cccc(C(F)(F)F)c1)c1nc2cc(F)c(F)cc2o1 [Compound 127]

**A:**
1. 0
2. 1
3. 0

====

Please go through the items and note down their Phytotoxicity soybean.
Tested on: soybean
METHOD NOTES: Foliage treatment test for upland field (Test Example 3): phytotoxicity to soybean; note: key: 0: normal growth; 1: little damaged; 2: low damaged; 3: medium damaged; 4: serious damaged; 5: complete killed
Type: in vivo
CONDITION SET: dose 5 g ai/a; foliage treatment at 1.0-2.0 leaf stage of southern crabgrass; examined after 3 weeks

# STRUCTURE, Phytotoxicity soybean
data = [
    ("COCC(=Cc1cccc(C(F)(F)F)c1)c1nc2cc(C#N)c(F)cc2o1", 1),
    ("FC(F)C(F)(F)COCC(=Cc1cccc(C(F)(F)F)c1)c1nc2cc(C(F)(F)F)ccc2o1", 1),
    ("CCOCC(=Cc1cccc(C(F)(F)F)c1)c1nc2cc(C(F)(F)F)ccc2o1", 2),
    ("COCC(=Cc1cccc(C(F)(F)F)c1)c1nc2cc(C(F)(F)F)ccc2o1", 2),
    ("CCOC/C(=C\\c1cccc(C(F)(F)F)c1)c1nc2cc(Cl)ccc2o1", 1),
    ("COC/C(=C\\c1cccc(C(F)(F)F)c1)c1nc2cc(Cl)ccc2o1", 2),
    ("COCC(=Cc1ccc(F)c(C(F)(F)F)c1)c1nc2cc(F)c(F)cc2o1", 1),
    ("COCC(=Cc1cccc(C(F)(F)F)c1)c1nc2cc(C(C)(C)C)ccc2o1", 0),
]

**Q:** Which Phytotoxicity soybean value is on record for CCSCC(=Cc1cccc(C(F)(F)F)c1)c1nc2cc(C(F)(F)F)ccc2o1 ?
**A:** 0

====

Please go through the items and note down their Phytotoxicity wheat.
Tested on: wheat
METHOD NOTES: Soil treatment test for upland field (Test Example 2): phytotoxicity to wheat; note: key: 0: normal growth; 1: little damaged; 2: low damaged; 3: medium damaged; 4: serious damaged; 5: complete killed
Type: in vivo
CONDITION SET: dose 2.5 g ai/a; soil treatment before germination; examined after 3 weeks

// worked examples, Phytotoxicity wheat included
# MOLECULE, Phytotoxicity wheat
records = [
    ("COC/C(=C\\c1cccc(C(F)(F)F)c1)c1nc2cc(Cl)ccc2o1 [Compound 3]", 0),
    ("FC(F)(F)COC/C(=C\\c1cccc(C(F)(F)F)c1)c1nc2cc(C(F)(F)F)ccc2o1 [Compound 85]", 0),
    ("CCOCC(=Cc1cccc(C(F)(F)F)c1)c1nc2cc(F)c(F)cc2o1 [Compound 127]", 0),
]

Next:
**Q:** Which Phytotoxicity wheat value is on record for CCOCC(=Cc1cccc(C(F)(F)F)c1)c1nc2cc(C(F)(F)F)ccc2o1 [Compound 54] ?
**A:** 1

====

System: rice plant
METHOD NOTES: Weed control test for paddy field (Test Example 1): phytotoxicity to rice plant
Assay type: in vivo
CONDITION SET: dose 2.5 g ai/a; paddy pots, treated at 1.0 leaf stage of barnyard grass; examined after 3 weeks
RECORDED ENDPOINT: Phytotoxicity Rice plant
Give bare numbers.

// worked examples, Phytotoxicity Rice plant included
# STRUCTURE, Phytotoxicity Rice plant
records = [
    ("CCOCC(=Cc1cccc(C(F)(F)F)c1)c1nc2cc(F)cc(F)c2o1", 0),
    ("COCC(=Cc1cccc(C(F)(F)F)c1)c1nc2cc(Br)ccc2o1", 0),
    ("FC(F)(F)COC/C(=C\\c1cccc(C(F)(F)F)c1)c1nc2cc(C(F)(F)F)ccc2o1", 0),
    ("COCC(=Cc1ccc(F)c(C(F)(F)F)c1)c1nc2cc(F)c(F)cc2o1", 0),
    ("CCOCC(=Cc1cccc(C(F)(F)F)c1)c1nc2cc(C(F)(F)F)ccc2o1", 1),
]

For the 4 compounds below, give their Phytotoxicity Rice plant values.
1. COCC(=Cc1cccc(C(F)(F)F)c1)c1nc2cc(C(F)(F)F)ccc2o1
2. COCC(=Cc1cccc(C(F)(F)F)c1)c1nc2cc(C(C)(C)C)ccc2o1
3. CCOC/C(=C\c1cccc(C(F)(F)F)c1)c1nc2cc(Cl)ccc2o1
4. CSCC(=Cc1cccc(C(F)(F)F)c1)c1nc2cc(Cl)ccc2o1

**A:**
[0, 0, 1, 0]

**Q:** Which Phytotoxicity Rice plant value is on record for COCC(=Cc1ccc(Cl)c(C(F)(F)F)c1)c1nc2cc(Cl)ccc2o1 ?
**A:** 0

====

Test system: corn
METHOD NOTES: Foliage treatment test for upland field (Test Example 3): phytotoxicity to corn
Type: in vivo
CONDITION SET: dose 2.5 g ai/a; foliage treatment at 1.0-2.0 leaf stage of southern crabgrass; examined after 3 weeks
RECORDED ENDPOINT: Phytotoxicity corn
Give bare numbers.

For the 4 compounds below, give their Phytotoxicity corn values.
1. CCSCC(=Cc1cccc(C(F)(F)F)c1)c1nc2cc(C(F)(F)F)ccc2o1
2. CCOCC(=Cc1cccc(C(F)(F)F)c1)c1nc2cc(C(F)(F)F)ccc2o1
3. COC/C(=C\c1cccc(C(F)(F)F)c1)c1nc2cc(Cl)ccc2o1
4. COCC(=Cc1cccc(C(F)(F)F)c1)c1nc2cc(C(C)(C)C)ccc2o1

**A:**
1. 0
2. 1
3. 1
4. 0

====

System: soybean
METHOD NOTES: Foliage treatment test for upland field (Test Example 3): phytotoxicity to soybean; note: key: 0: normal growth; 1: little damaged; 2: low damaged; 3: medium damaged; 4: serious damaged; 5: complete killed
Format: in vivo
CONDITION SET: dose 5 g ai/a; foliage treatment at 1.0-2.0 leaf stage of southern crabgrass; examined after 3 weeks
Please go through the items and note down their Phytotoxicity soybean.
Give bare numbers.

For the 4 compounds below, give their Phytotoxicity soybean values.
1. COCC(=Cc1ccc(Cl)c(C(F)(F)F)c1)c1nc2cc(Cl)ccc2o1 [Compound 9]
2. FC(F)(F)COC/C(=C\c1cccc(C(F)(F)F)c1)c1nc2cc(C(F)(F)F)ccc2o1 [Compound 85]
3. COCC(=Cc1cccc(C(F)(F)F)c1)c1nc2cc(OC(F)(F)F)ccc2o1 [Compound 46]
4. CSCC(=Cc1cccc(C(F)(F)F)c1)c1nc2cc(C(F)(F)F)ccc2o1 [Compound 82]

**A:**
1
2
1
1

**Q:** Which Phytotoxicity soybean value is on record for COCC(=Cc1cccc(C(F)(F)F)c1)c1nc2cc(Br)ccc2o1 [Compound 39] ?
**A:** 1

====

System: soybean
METHOD NOTES: Soil treatment test for upland field (Test Example 2): phytotoxicity to soybean
Assay type: in vivo
CONDITION SET: dose 5 g ai/a; soil treatment before germination; examined after 3 weeks
RECORDED ENDPOINT: Phytotoxicity soybean
Numbers only.

# COMPOUND, Phytotoxicity soybean
measured = [
    ("CCSCC(=Cc1cccc(C(F)(F)F)c1)c1nc2cc(C(F)(F)F)ccc2o1 [Compound 84]", 0),
    ("COCC(=Cc1ccc(Cl)c(C(F)(F)F)c1)c1nc2cc(Cl)ccc2o1 [Compound 9]", 0),
    ("CCOC/C(=C\\c1cccc(C(F)(F)F)c1)c1nc2cc(Cl)ccc2o1 [Compound 11]", 0),
]

For the 4 compounds below, give their Phytotoxicity soybean values.
1. CCOCC(=Cc1cccc(C(F)(F)F)c1)c1nc2cc(F)c(F)cc2o1 [Compound 127]
2. FC(F)C(F)(F)COCC(=Cc1cccc(C(F)(F)F)c1)c1nc2cc(C(F)(F)F)ccc2o1 [Compound 87]
3. COCC(=Cc1cccc(C(F)(F)F)c1)c1nc2cc(OC(F)(F)F)ccc2o1 [Compound 46]
4. CCOCC(=Cc1cccc(C(F)(F)F)c1)c1nc2cc(C(F)(F)F)ccc2o1 [Compound 54]

**A:**
0
1
1
1
